Measured IC50 accompanies every entry in the list below.
Tested on: JEV (P20778)
Assay: Plaque reduction assay, JEV in PS cells
Conditions: Japanese encephalitis virus, read-out: IC50, plaque reduction, JEV (molar)

compound: COc1cc(-c2cnc(/N=C3\C(=O)N(CN4CCN(c5ccc([N+](=O)[O-])cc5)CC4)c4ccccc43)nc2N)cc(OC)c1OC
IC50: 25 µM

Now examine the next entry.
What measured IC50 goes with NC(=O)c1ncn([C@@H]2O[C@H](CO)[C@@H](O)[C@H]2O)n1 [Ribavirin, reference compound] ?
16 µM

----------
Below, each of the molecules is paired with its reported CC50 value.
Assay: in vitro
Conditions: hamster
Please respond with the number in µg/mL and leave the unit unwritten.

molecule: NC(=O)c1ncn([C@@H]2O[C@H](CO)[C@@H](O)[C@H]2O)n1 [Ribavirin, reference compound]
unit name: µg/mL
recorded value: 200

// below: CC50 requested for another molecule
What value of measured CC50 is listed for "COc1cc(-c2cnc(/N=C3\C(=O)N(CN4CCN(c5ccc([N+](=O)[O-])cc5)CC4)c4ccccc43)nc2N)cc(OC)c1OC" ?
126

----------
Experiment: in vitro
Conditions: pig
Catalogue of CC50 values
Give just the numeric value; µg/mL need not be written.

compound: COc1cc(-c2cnc(/N=C3\C(=O)N(CN4CCN(c5ccc([N+](=O)[O-])cc5)CC4)c4ccccc43)nc2N)cc(OC)c1OC
CC50 [µg/mL]: 76

# query: CC50 of entry NC(=O)c1ncn([C@@H]2O[C@H](CO)[C@@H](O)[C@H]2O)n1 [Ribavirin, reference compound]
50
